Test system: FES
experiment-summary: KINOMEscan kinase binding assay
protocol-conditions: at 1 μM
Known % Ctrl of a selection of compounds
Please state the figure in %; there is no need to write the unit.

These recorded examples may help you get a feel for the data.
> print(dat)
                                 cpd.smiles  unit  result.number
1  C[C@@H]1COCc2nn(C)cc2-c2cc(Cl)c3c(c2)/C(=C/c2[nH]ccc2C(=O)N1)C(=O)N3     %            100
2  Cc1cc2c([nH]1)/C=C1\C(=O)Nc3ccc(cc31)-c1c(nn(C)c1C)OCCCN(C)C2=O     %             92
3  Cc1cc2c([nH]1)/C=C1\C(=O)Nc3c(Cl)cc(cc31)-c1cn(C)nc1COC[C@@H](C)NC2=O     %             99
4  Cc1cc2c([nH]1)/C=C1\C(=O)Nc3c(Cl)cc(cc31)-c1cn(C)nc1COC[C@@H](C)N(C)C2=O     %             89

Lab note: next compound to report on.
What value of % Ctrl has been recorded for this entry: Cc1cc2c([nH]1)/C=C1\C(=O)Nc3ccc(cc31)-c1c(nn(C)c1C)COCCN(C)C2=O 100

* * *

test-target: JAK3(JH1domain-catalytic)
experiment-summary: KINOMEscan kinase binding assay
protocol-conditions: read-out: JAK3(JH1 domain-catalytic) Kd
Known Kd of a selection of compounds
# value in µM; strip the unit string

Use the examples below as a reference point.
> print(dat)
                                 cpd.smiles  result.number
1  Cc1cc2c([nH]1)/C=C1\C(=O)Nc3ccc(cc31)-c1c(nn(C)c1C)COCCN(C)C2=O           0.51
2  C[C@@H]1COCc2nn(C)cc2-c2cc(Cl)c3c(c2)/C(=C/c2[nH]ccc2C(=O)N1)C(=O)N3          0.059

Here's the next entry for you.
Which Kd reading was recorded for the compound Cc1cc2c([nH]1)/C=C1\C(=O)Nc3c(Cl)cc(cc31)-c1[nH]c(C)nc1COC[C@@H](C)N(C)C2=O ? 3.1

* * *

Entries annotated with measured % Ctrl
System: TYK2(JH1domain-catalytic)
experiment-summary: KINOMEscan kinase binding assay
protocol-conditions: TYK2(JH1domain-catalytic); at 1 μM
Protocol: Kinase binding assays were performed at Eurofins/DiscoveRx using the general KINOMEscan Protocol (Fabian, M. A. et al., “A small molecule-kinase interaction map for clinical kinase inhibitors,” Nat. Biotechnol. 2005, 23(3):329-36). […] The kinase concentration in the eluates was measured by qPCR. […] Dissociation constants (Kds) for test compound-kinase interactions were calculated by measuring the amount of kinase captured on the solid support as a function of the test compound concentration.
Give the figure together with its unit, number first.

> print(dat)
                                   molecule  result
1  Cc1cc2c([nH]1)/C=C1\C(=O)Nc3c(Cl)cc(cc31)-c1cn(C)nc1COC[C@@H](C)N(C)C2=O [Cpd. 5]     69%
2  Cc1cc2c([nH]1)/C=C1\C(=O)Nc3c(Cl)cc(cc31)-c1cn(C)nc1COC[C@@H](C)NC2=O [Cpd. 3]     71%
3  C[C@@H]1COCc2nn(C)cc2-c2cc(Cl)c3c(c2)/C(=C/c2[nH]ccc2C(=O)N1)C(=O)N3 [Cpd. 4]     48%
4  Cc1cc2c([nH]1)/C=C1\C(=O)Nc3ccc(cc31)-c1c(nn(C)c1C)COCCN(C)C2=O [Cpd. 2]    100%

Now look at this one.
% Ctrl for Cc1cc2c([nH]1)/C=C1\C(=O)Nc3ccc(cc31)-c1c(nn(C)c1C)OCCCN(C)C2=O [Cpd. 1] ? 31%
